Provide the recorded zone of inhibition at 60 µg/disc for the entries that follow.
System: Mucor
Protocol details: Antifungal activity against Mucor at 60 ug/disc after 24 hrs by disc diffusion method
Type: functional
Measurement context: read-out: IZ
Give your result in mm as a bare value.

// query Sample `Cc1ccc(-c2c(C#N)c(N)nc3c2C(=O)CCC3)cc1` — what was its zone of inhibition at 60 µg/disc?
// result 10

// query Which measured zone of inhibition at 60 µg/disc value corresponds to `C[C@@H]1[C@H](O)[C@@H](C)/C=C/C=C/C=C/C=C/C=C/C=C/C=C/[C@H](O[C@@H]2O[C@H](C)[C@@H](O)[C@H](N)[C@@H]2O)C[C@@H]2O[C@](O)(C[C@@H](O)C[C@@H](O)[C@H](O)CC[C@@H](O)C[C@@H](O)CC(=O)O[C@H]1C)C[C@H](O)[C@H]2C(=O)O` ?
// result 7

// query Bench note: what zone of inhibition at 60 µg/disc did `N#Cc1c(N)nc2c(c1-c1cccc([N+](=O)[O-])c1)C(=O)CCC2` show?
// result 9

// query Item `N#Cc1c(N)nc2c(c1-c1cccc(N)c1)C(=O)CCC2` has what recorded zone of inhibition at 60 µg/disc?
// result 7

// query // returns reported zone of inhibition at 60 µg/disc for input `CC(=O)Nc1nc2c(c(-c3cccc(N4C(=O)C=CC4=O)c3)c1C#N)C(=O)CCC2`
// result 9

// query Requested read-out: zone of inhibition at 60 µg/disc. Entry: `N#Cc1c(N)nc2c(c1-c1ccc(F)cc1)C(=O)CCC2`
// result 9

###

Could you please report measured zone of inhibition at 100 µg/disc for the items listed next?
Test system: Candida albicans
Protocol details: Antifungal activity against Candida albicans 1 at 100 ug/disc after 24 hrs by disc diffusion method
Format: functional
Measurement context: read-out: IZ
Report the value in mm with no unit label.

// query Which value of zone of inhibition at 100 µg/disc has been reported for `N#Cc1c(N)nc2c(c1-c1ccc([N+](=O)[O-])cc1)C(=O)CCC2` in the records?
// result 5

// query Given the entry `N#Cc1c(N)nc2c(c1-c1ccccc1)C(=O)CCC2` , report its measured zone of inhibition at 100 µg/disc.
// result 6

// query What value of zone of inhibition at 100 µg/disc has been reported for the following molecule? `N#Cc1c(N)nc2c(c1-c1ccccc1Cl)C(=O)CCC2`
// result 4

###

Tested on: Fusarium oxysporum
Protocol details: Antifungal activity against Fusarium oxysporum 1 at 60 ug/disc after 24 hrs by disc diffusion method
Assay type: functional
Measurement context: read-out: IZ
Endpoint name: zone of inhibition at 60 µg/disc (mm)
# value in mm; strip the unit string

// query Need zone of inhibition at 60 µg/disc of `N#Cc1c(N)nc2c(c1-c1cccc([N+](=O)[O-])c1)C(=O)CCC2` , thanks.
// result 4

// query Quick one: zone of inhibition at 60 µg/disc of `N#Cc1c(N)nc2c(c1-c1ccccc1)C(=O)CCC2` ?
// result 3

// query What zone of inhibition at 60 µg/disc value was documented for this compound, `N#Cc1c(N)nc2c(c1-c1cccc(N)c1)C(=O)CCC2` ?
// result 3

// query # get_value(readout='zone of inhibition at 60 µg/disc', item= `N#Cc1c(N)nc2c(c1-c1cccc(N3C(=O)C=CC3=O)c1)C(=O)CCC2` )
// result 3
